Entries and their HEK Blue EC50 values follow.
molecular target: human CD40 expressed on cells (human, UniProt P25942 21-277); assay: cell-based or functional assay
Sequence (P25942 21-277 limits assumed): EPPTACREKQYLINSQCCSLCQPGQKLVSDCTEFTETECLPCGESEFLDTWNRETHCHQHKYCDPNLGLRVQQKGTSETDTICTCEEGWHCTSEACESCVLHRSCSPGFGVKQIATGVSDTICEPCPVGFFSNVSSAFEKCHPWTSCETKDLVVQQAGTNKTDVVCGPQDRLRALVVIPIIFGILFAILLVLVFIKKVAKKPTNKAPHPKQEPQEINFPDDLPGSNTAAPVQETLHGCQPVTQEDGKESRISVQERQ
Measured parameter: HEK Blue EC50

* 13A2 (mouse monoclonal antibody) (antibody, V domains shown) VH: EVKLEQSGPGLVKPSQSLSLTCSVTGYSITTNYYWNWIRQFPGNKLEWMGYINYDGSNNYNPSLKNRISITRDTSKNQFFLKLNSVTTEDTATYYCARLDYWGQGTSVTVSS VL: DIVMTQSPLSLPVSLGDQASISCRSSQSLENSNGNTFLNWFLQKPGQSPQLLIYKVSNRFSGVLDRFSGTGSGTDFTLTISRVEAEDLGVYFCLQVTHVPFTFGSGTKLEIK | 0.0126 µg/mL
* 7B4 (mouse monoclonal antibody) (antibody, V domains shown) VH: EVQLQESGPGLVKPSQSLSLTCSVTGYSITTNYYWNWIRQFPGNKLEWMGYIKYDGSNNYNPSLKNRISITRDTSKNQFFLKLNSVTTEDTATYYCARLDYWGQGTSVTVSS VL: DIVLTQSPLSLPVSLGDQASISCRSSQSLENSNGNTFLNWFLQKPGQSPQLLIYKVSNRFSGVLDRFSGTGSGTDFTLTISRVEAEDLGVYFCLQVTHVPFTFGSGTKLEIK | 0.0261 µg/mL
* 92F6 (mouse monoclonal antibody) (antibody, V domains shown) VH: QVQLEQSGAEVVKPGASVKVSCTASGFNIKDTYMHWVKQRPEQGLEWIGRIDPANGNTNYDPKFQGKATITADTSSNTGYLQLSSLTSEDTAVYYCSRWGYDWYFDVWGAGTSVTVSS VL: DIVITQSTAIMSASPGEKVTITCSASSSVSYIHWFQQKPGTSPKLWIYTTANLASGVPARFSGSGSGTSYSLTISRMEAEDAATYYCQQRSNYPFTFGSGTKLEIK | 0.264 µg/mL

Data origin: patent US10654939
